Assay: Pharmacokinetics in 3+3 dose escalation study
Format: in vivo, human
Conditions: human, in vivo; 40-100 mg dose range, once daily; read-out: average steady state Cmax
Experimental readout: Cmax (nM)
Write it as a number; the unit nM goes unstated.

Short answer for CCS(=O)(=O)N1CCN(c2ccc(Nc3ncc(C(N)=O)c(NC4CC4)n3)cc2)CC1 [cerdulatinib] : Cmax was 1380

* * *

Assay: Pharmacokinetics in 3+3 dose escalation study
Format: in vivo, human
Conditions: human, in vivo; patients, once daily dosing
Procedure: Methods: This experiment was a 3+3 dose escalation study with 28-day cycles and doses studied ranging from 15 mg to 100 mg QD, and up to 45 mg BID. PK, PD, and safety were monitored. Clinical response was assessed by standard criteria. The level of inhibition of SYK and JAK was determined by multiple whole blood assays measuring signaling via BCR, IL2, IL4, IL6, and GM-CSF. Serum markers of tumor burden-CCL3, CCL4, and other markers of inflammation-B2M, CRP, were also measured.
Experimental readout: half-life

Record CCS(=O)(=O)N1CCN(c2ccc(Nc3ncc(C(N)=O)c(NC4CC4)n3)cc2)CC1 [cerdulatinib] , field half-life: 12 to 16 h
